# testTarget: Gal(b1-3)GlcNAc(b1-3)Gal(b1-4)GlcNAc(b1-6)[Gal(b1-3)GlcNAc(b1-3)]Gal(b1-4)Glc
# testProtocol: glycan array binding signal (z-score within array); higher = stronger binding
# statedConditions: glycan notation: IUPAC condensed, linker removed
The entries come from a sample that favours the strongest signals as a whole.
quantityKind: glycan array binding signal (z-score)
Write the number on its own, no unit after it.

**Query** Query: glycan array binding signal (z-score); subject: Epa6 (Candida glabrata), Q6DTM7_CANGB (protein) MGSSHHHHHHSSGLVPRGSHMKDDYSSSLSNNNLGWTDPTEFPLGCSPNVTTPKNGLSMELYSYDYLKSGSNPCWDAAYLDPNYPRTGYKSHRLLAKVENVAGNINFYYHAPMGCTSLFDTLPQAYNYRTPLTMTNFTMLLYGYFKPKVTGYHTFTISADDLLFVNFGAGNAFDCCKRESSADDFGNYQAYAVWGSQTAKDDLTVHLDAGLYYPIRIFFNNRDNDGALSLTLKTESDPNPVIDFSDYFYSFDDTKDGCPGLVSYDTS
**Result** 0.257

**Query** Query: glycan array binding signal (z-score); subject: LlpA (Burkholderia cenocepacia) (protein) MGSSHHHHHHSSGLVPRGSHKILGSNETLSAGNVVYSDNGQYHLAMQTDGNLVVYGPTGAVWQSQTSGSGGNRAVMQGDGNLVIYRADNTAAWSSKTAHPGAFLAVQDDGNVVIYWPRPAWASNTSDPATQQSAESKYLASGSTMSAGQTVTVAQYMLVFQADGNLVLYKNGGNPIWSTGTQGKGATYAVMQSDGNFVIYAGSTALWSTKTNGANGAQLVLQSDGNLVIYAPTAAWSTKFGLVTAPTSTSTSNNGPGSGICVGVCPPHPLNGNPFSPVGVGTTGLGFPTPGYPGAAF
**Result** 1.7
